tested on: H1781 cells (HER2 ex20ins); assay: cells; format: cell-based; conditions: Homo sapiens, NCI-H1781, 72 h, read-out: IC50 proliferation
Observed property: pIC50
Scale explanation: pIC50 corresponds to minus log10 of a concentration expressed in moles per litre.

Give the observed pIC50 of C=CC(=O)Nc1cc(Nc2nccc(-c3cn(C)c4ccccc34)n2)c(OC)cc1N(C)CCN(C)C [Osimertinib] for H1781 cells (HER2 ex20ins).
6.39

Next item in the queue.
# return pIC50 for CN(C)C/C=C/C(=O)Nc1cc2c(Nc3ccc(F)c(Cl)c3)ncnc2cc1O[C@H]1CCOC1 [Afatinib] , test system: H1781 cells (HER2 ex20ins)
7.18
